Assay: Ratio of IC50 against chinese hamster V79 cells in aerobic and anaerobic conditions
Type: cell-based, Cricetulus griseus
Note to self: selectivity ratio under 10 means True, ties and anything higher get False.

Does the reported selectivity ratio of `Cc1c(COC(N)=O)c2c(n1C)C(=O)C=C(N1CCCC1)C2=O` stay below 10? True

For COC1=CC(=O)c2c(cc3n2CC2CC32)C1=O (stereo unspecified) , is the recorded selectivity ratio below the cut-off of 10? True

Determine whether this compound shows selectivity ratio lower than 10 (ties excluded): COCC/N=C1/C=C(O)c2c(c(COC(N)=O)c3n2CC2CC32)C1=O (stereo unspecified) True

selectivity ratio strictly < 10 for this compound? Cc1c(COC(N)=O)c2c(n1C)C(=O)C=C(N1CC1C)C2=O (stereo unspecified) True

State whether 10 exceeds selectivity ratio recorded for `O=C1C(N2CC2)=CC(=O)c2c1cc1n2CCC1` . True

Others:
For this compound, is selectivity ratio lower than 10? `Cc1cc2c(n1C)C(=O)C=C(N1CC1)C2=O` True

Identify whether the compound CC1CN1C1=CC(=O)c2c(cc3n2CC2CC32)C1=O (stereo unspecified) records selectivity ratio below 10. False

Lab log: compare recorded selectivity ratio with 10; is it strictly lower for COC1=CC(=O)c2c(c(COC(N)=O)c3n2CC2CC32)C1=O (stereo unspecified) ? False

Item `COC1=CC(=O)c2c(c(COC(N)=O)c3n2CCC3)C1=O` : selectivity ratio beneath 10, strictly? False

For this compound, is selectivity ratio lower than 10? CC1CN1C1=CC(=O)c2c(c(COC(N)=O)c3n2CCC3)C1=O (stereo unspecified) True

Please state whether selectivity ratio is below 10 for `NC(=O)OCc1c2c(n3c1CCC3)C(=O)C=C(N1CC1)C2=O` False

----------
Experiment: Partition coefficient (log P) between equal volumes of n-octanol and 0.04 M phosphate buffer (pH 7.4)
Settings: n-octanol/0.04 M phosphate buffer
Observation type: logP
Enter the number alone.

See these solved cases before continuing.
Given the compound COC1=CC(=O)c2c(cc3n2CC2CC32)C1=O (stereo unspecified) , what is its reported logP? 1.71

Bench note: what logP did CC1CN1C1=CC(=O)c2c(c(COC(N)=O)c3n2CC2CC32)C1=O (stereo unspecified) show? 1.19

Reported logP, compound CC1CN1C1=CC(=O)c2c(cc3n2CC2CC32)C1=O (stereo unspecified) : ____ 1.48

Field request: logP | item: COC1=CC(=O)c2c(c(COC(N)=O)c3n2CC2CC32)C1=O (stereo unspecified) 0.65

Fill in: logP of NC(=O)OCc1c2c(n3c1C1CC1C3)C(=O)C=C(N1CC1)C2=O (stereo unspecified) is ___ 1.05

New cases:
Can you look up the measured logP of O=C1C(N2CC2)=CC(=O)c2c1cc1n2CC2CC12 (stereo unspecified) for me? 1.47

----------
Experiment: Ratio of IC50 against chinese hamster V79 cells in aerobic and anaerobic conditions
Type: cell-based, Cricetulus griseus
Observation type: selectivity ratio
Response field accepts a number only; no unit should be typed.

Below: 4 molecules and their reported selectivity ratio.
Request the reported selectivity ratio associated with Cc1cc2c(n1C)C(=O)C=C(N1CC1C)C2=O (stereo not given) 19

Which selectivity ratio value belongs to O=C1C(N2CC2)=CC(=O)c2c1cc1n2CC2CC12 (stereo not given) ? 3.5

Tell me the measured selectivity ratio of NC(=O)OCc1c2c(n3c1C1CC1C3)C(=O)C=C(N)C2=O (stereo not given) , please. 11

# get_value(readout='selectivity ratio', item= `Cc1c(COC(N)=O)c2c(n1C)C(=O)C=C(N1CC1)C2=O` ) 20

***
Quick one: selectivity ratio for `COC1=CC(=O)c2c(cc3n2CCC3)C1=O` ? 1

----------
Assay: Ratio of IC50 against chinese hamster V79 cells in aerobic and anaerobic conditions
Assay type: cell-based, Cricetulus griseus
In plain terms, low selectivity ratio, meaning strictly below 20, gives yes (1), and everything else gives no (0).

Solved entries:
API: query returns whether the compound falls strictly under 20 in selectivity ratio. Query: `Cc1cc2c(n1C)C(=O)C=C(N1CCCC1)C2=O` yes (1)

Given NC(=O)OCc1c2c(n3c1C1CC1C3)C(=O)C=C(N1CCCC1)C2=O (stereo unspecified) , is recorded selectivity ratio strictly lower than 20? yes (1)

Does this compound meet the criterion selectivity ratio < 20? `COC1=CC(=O)c2c(c(COC(C)=O)c3n2CCC3)C1=O` no (0)

Does COC1=CC(=O)c2c(c(COC(N)=O)c3n2CC2C3C2(C)C)C1=O (stereo unspecified) have selectivity ratio strictly under 20? no (0)

Quick check: selectivity ratio of COC1=CC(=O)c2c(c(COC(C)=O)c3n2CC2CC32)C1=O (stereo unspecified) under 20? yes (1)

Criterion: selectivity ratio strictly below 20. Is it met by NC(=O)OCc1c2c(n3c1C1CC1C3)C(=O)C=C(N1CC1)C2=O (stereo unspecified) ? yes (1)

Confirm or reject: selectivity ratio of `COC1=CC(=O)c2c(c(COC(N)=O)c(C)n2C)C1=O` lies strictly below 20 no (0)

Below 20 on selectivity ratio? Entry `COC1=CC(=O)c2c(cc(C)n2C)C1=O` yes (1)

***
Hello, I'm reviewing records and need to know if selectivity ratio of `CO[C@@]12[C@H](COC(N)=O)C3=C(C(=O)C(C)=C(N)C3=O)N1C[C@@H]1N[C@@H]12` is below 20. Could you check? yes (1)
